system: MOLT-4 leukemia; assay: NCI tumour cell line growth inhibition, 48 h
endpoint-name: log10 of TGI (log10 of the value in µM)
Log scale reminder: TGI in µM, then log10 taken.

[Q] Consider the compound O=C(c1ccc2ccccc2c1O)N1CCCCC1 and give its recorded log10 of TGI.
[A] 1.77

[Q] Read the entry CC1[C@@H]2[C@@H](C=C3C4CCC5Cc6nc7c(nc6C[C@@]5(C)C4C[C@H](O)[C@]32CO)CC2CCC3C4=C[C@H]5O[C@@]6(O[C@@](C)(CO)C[C@@H]6O)C(C)[C@@]5(O)[C@]4(C)[C@@H](O)CC3[C@]2(C)C7)O[C@]12CCC(C)(C)O2 (some centres not stated) and write its reported log10 of TGI.
[A] -1.79

[Q] Give the measured log10 of TGI for CCCN(CCC)CCCNCc1cc(I)cc(C)c1O
[A] 1.37

[Q] // fetch log10 of TGI given entry O=C(O)[C@H]1[C@@H](C2CCCCC2)O[C@@H](C2CCCCC2)O[C@H]1C(F)(F)F
[A] 1.65

[Q] For the compound COc1ccc(Cn2c(C)nc3c2C(=O)c2ccccc2C3=O)cc1 , report log10 of TGI.
[A] 1.48

====

system: PC-3 prostate; assay: NCI tumour cell line growth inhibition, 48 h
endpoint-name: TGI

[Q] Answer with reported TGI of CCOc1ccc2nc(NC(=O)C(=O)C(C(=O)c3ccccc3-c3ccccc3)C3OC(=O)c4ccccc43)sc2c1 (stereo not given)
[A] 41.7 µM

[Q] Specify TGI for COC(=O)N1CC2(CO)C3CC=C(C(=O)Nc4ccccc4Br)C2C1C3Br (stereo not given) and stop.
[A] > 50 µM

[Q] Provide one value: measured TGI of C=C(C)C(=O)CC[C@@H](C)[C@H]1[C@@H](OC2OC(CO)C(O)C(O)C2O)C[C@@]2(C)[C@@H]3C[C@H](O)C4C(C)(C)[C@@H](OC5OC(CO)C(O)C(O)C5O)CC[C@@]45C[C@@]35CC[C@]12C (stereo not given in full)
[A] > 100 µM

[Q] Tell me measured TGI for O=C(CP(c1ccccc1)c1ccccc1)c1cccc(C(=O)CP(c2ccccc2)c2ccccc2)c1 please.
[A] > 100 µM

[Q] Look up and report measured TGI for this entry: CCCC(=O)O
[A] > 18700 µM

[Q] Tell me its TGI given O=C1Oc2ccccc2C(=O)/C1=C/N1C(=O)N/C(=C\c2ccccc2O)C1=O as the entry.
[A] > 100 µM

[Q] Supply reported TGI belonging to this molecule: O=C(Cn1c(=O)oc2ccc(C(=O)c3ccc(F)cc3)cc21)c1ccc([N+](=O)[O-])cc1
[A] 85.9 µM

[Q] Identify measured TGI corresponding to CCCN(CCC)CCCNCc1cc(I)cc(C)c1O
[A] 28.4 µM

[Q] Provide measured TGI value, entry: Cc1nc2c(=S)[nH]ncc2[nH]1
[A] > 100 µM

[Q] Read off the recorded TGI for CC(=O)C1=C(O)C=C2Oc3c(C(=O)/C=C/c4cc(C(F)(F)F)cc(C(F)(F)F)c4)c(O)c(C)c(O)c3[C@]2(C)C1=O
[A] 2.3 µM

[Q] Report TGI for O=C1C(N2CCCC2)=CC(=O)c2c(O)c(N3CCCC3)c(Cl)c(O)c21
[A] > 10 µM

[Q] Specify measured TGI for COc1ccc(-c2nc(N)c(C#N)c3c2CCS(=O)(=O)c2ccc(C)cc2-3)cc1OC .
[A] > 100 µM

[Q] Output TGI of CCOC(=O)CCCn1nnc(C(=O)OCC)c1C(=O)OCC
[A] > 100 µM

[Q] Specify TGI for Cc1[nH]ncc1-c1cc2nc(C3CC4CCN3CC4)[nH]c(=O)c2s1 (stereo not given) and stop.
[A] > 100 µM

[Q] Provide measured TGI value, entry: Cc1ccc(S(=O)(=O)c2scc(-c3ccccc3)c2C)cc1
[A] > 100 µM

[Q] Kindly indicate its recorded TGI. Item: O=C(/C=C/c1ccc(B(O)O)cc1)/C=C/c1ccc(B(O)O)cc1
[A] 14.3 µM

[Q] Tell me its TGI given COc1ccc(-c2[nH]ncc2-c2cc3c(c(OC)c2)OCC(=O)N3)cc1 as the entry.
[A] > 100 µM

[Q] Quick one: give measured TGI for COC1=CC(c2ccc[nH]2)=N/C1=C\c1[nH]c(C)c(C(=O)OCc2ccccc2)c1C
[A] 20.6 µM

[Q] Provide measured TGI value, entry: O=C1C=CC2CCC1C2 (stereo not given)
[A] > 100 µM

[Q] Find the measured TGI of O=c1[nH]c(=O)n(C2CC(O)C(CO)O2)cc1I (stereo not given) and report it.
[A] > 100 µM

[Q] Quote TGI reported for O=[As](O)(O)c1ccc(NCc2ccccc2)cc1 please.
[A] > 100 µM

[Q] Note TGI for the molecule shown: CN(C)CCNc1ccc(C(=O)NCCCN(C)CCCNC(=O)c2ccc(NCCN(C)C)c3c(=O)c4ccccc4[nH]c23)c2[nH]c3ccccc3c(=O)c12
[A] 3.44 µM

[Q] Answer with the recorded TGI of N#Cc1cc(C#N)c(Cl)nc1N only.
[A] > 10 µM

[Q] Provide measured TGI value, entry: CCC(C)[C@@H](NCc1ccccc1)[C@H](OCc1ccccc1)[C@@H]1COC(C)(C)O1 (stereo not given in full)
[A] > 100 µM

[Q] Give the reported TGI for this molecule. O=C1c2c(F)c(F)c(F)c(F)c2SC2=NCCN12
[A] 27.2 µM

[Q] Identify the reported TGI for the following entry. O=C1N[C@H]2c3c(Cl)sc(Cl)c3/C(=N/O)[C@H]2O1
[A] > 100 µM

[Q] // fetch TGI given entry O=c1cc(CNC2CCCC2)[nH]c(=O)[nH]1
[A] > 100 µM

[Q] Answer with reported TGI of O=P([O-])(O)OP(=O)([O-])O.[NH-][C@H]1CCCC[C@@H]1[NH-].[OH-].[OH-].[Pt+4]
[A] 68.2 µM

[Q] Return the recorded TGI value; entry: CC(C)(C)OC(=O)NCCNC1=CC(=O)c2nc3ccccc3c3ccnc1c23
[A] 49.2 µM

[Q] Return value of TGI for input O=C1C2CCCCC2C(=O)N1n1c(Cc2ccc(Cl)cc2)n[nH]c1=O (stereo not given) , no commentary.
[A] > 100 µM

[Q] Item O=C(Nc1ccc(Cl)cc1Cl)c1ccc(NC2=C(Cl)C(=O)N(Cc3ccccc3)C2=O)cc1 : provide TGI
[A] 26.2 µM

[Q] // Input: O=C1CSC2(CC(/C=C/c3ccccc3)=NN2c2cccc(S(=O)(=O)O)c2)N1c1nc2ccccc2s1 (stereo not given) . Output its TGI only.
[A] 59.3 µM

[Q] Annotate the molecule C=CC(=O)Nc1ccc(Nc2nccc(-c3ccc(N4CCCC4)c(C#N)c3)n2)cc1 with its measured TGI.
[A] > 25 µM

[Q] Identify measured TGI associated with O=C(O)c1ccccc1.[Ag]
[A] 29.8 µM

[Q] // Input: COc1cc2c(/C=N\N=C(N)N)c(Cl)[nH]c2cc1C . Output its TGI only.
[A] 19.5 µM

[Q] Input O=C(c1ccccc1)c1ccc2c(c1)nc1n2C(c2c(Cl)cccc2Cl)SC1 (stereo not given) , output reported TGI.
[A] > 100 µM

[Q] Answer with reported TGI of C=C(C)[C@@H]1CC[C@]2(C(=O)O)CC[C@]3(C)[C@H](CC[C@@H]4[C@@]5(C)CC(=O)C(C)(C)[C@@H]5CC[C@]43C)[C@@H]12
[A] 19.7 µM

[Q] Supply reported TGI belonging to this molecule: Nc1nc(N)c2ncn(CC3CCC(CO)C3)c2n1 (stereo not given)
[A] > 100 µM

[Q] Give TGI for the following molecule: Cc1cc(C)nc(NC(N)=NCCc2ccccc2)n1
[A] > 100 µM

[Q] Note down TGI recorded for CN1C/C(=C\c2cccs2)C2=NC(=S)NC(c3cccs3)C2C1 (stereo not given)
[A] > 100 µM

====

Record form. Attribute: TGI. Fill in for each entry.
system: U251 CNS; assay: NCI tumour cell line growth inhibition, 48 h

[Q] Report TGI for O=C(Cn1c(=O)oc2ccc(C(=O)c3ccc(F)cc3)cc21)c1ccc([N+](=O)[O-])cc1
[A] > 100 µM

[Q] Identify the reported TGI for the following entry. Cc1[nH]ncc1-c1cc2nc(C3CC4CCN3CC4)[nH]c(=O)c2s1 (configuration not stated)
[A] > 100 µM

[Q] State its TGI: CCOc1ccccc1NC(=O)CCC(=O)OC
[A] > 71.1 µM

[Q] Specify measured TGI for COC(=O)[C@H](Cc1ccccc1)NC(=O)c1ccc(CNC(=O)/C=C/c2ccc(-c3ccccc3)cc2)cc1 .
[A] 37.3 µM

[Q] For Cc1ccc(C(=O)O/N=C2/CCCC/C2=C\c2ccccc2)cc1 , write its TGI.
[A] > 100 µM

[Q] Specify TGI for CC[n+]1cnc(N)c2c(-c3ccc(Cl)cc3)cn(-c3ccc(C)cc3)c21 and stop.
[A] 24.3 µM

[Q] Output measured TGI for this item: Cc1cc(C)nc(NC(N)=NCCc2ccccc2)n1
[A] > 100 µM

[Q] Answer with reported TGI of CC12CC3C(CC1SCC(=O)O2)C3(C)C (configuration not stated)
[A] > 100 µM

[Q] Entry N=C(c1ccccc1)N(c1ccccc1)c1ccccc1 needs its TGI filled in; supply it.
[A] > 100 µM

[Q] Name the recorded TGI of the item COC(=O)Cc1cc(OC)c(OC)cc1Br in your answer.
[A] > 100 µM

[Q] // fetch TGI given entry CC(C)=CCN=C(N)N
[A] > 100 µM

[Q] Tell me TGI reported for C=C(Cn1c(=O)c2ccccc2c2ccccc21)c1ccc(C(=O)Nc2ccccc2N)cc1
[A] > 100 µM

[Q] State its TGI: O=C(/C=C/c1ccc(B(O)O)cc1)/C=C/c1ccc(B(O)O)cc1
[A] 10.4 µM

[Q] Using known records, supply TGI for O=C1CSC2(CC(/C=C/c3ccccc3)=NN2c2cccc(S(=O)(=O)O)c2)N1c1nc2ccccc2s1 (configuration not stated)
[A] 42.1 µM

[Q] Let me know recorded TGI for CC1=CCC[C@@]2(C)C(CC[C@@H]2C(C)/C=C/C(C)C)c2ccc(cc2C(=O)O)C[C@@H](O)CC1 (some centres not stated) , thanks.
[A] 16 µM

[Q] Annotate the compound C[n+]1c(/C=C\C=C\N2CCCCC2)sc2ccccc21 with its measured TGI.
[A] 15 µM

[Q] For CCCCNC1CCC2(SCCS2)c2[nH]c3ccccc3c21 (configuration not stated) , write its TGI.
[A] 97.3 µM

[Q] Check the records and state TGI for O=C(c1ccc2ccccc2c1O)N1CCCCC1
[A] > 100 µM

[Q] Given the compound CN1C/C(=C\c2cccs2)C2=NC(=S)NC(c3cccs3)C2C1 (configuration not stated) , write its reported TGI.
[A] > 100 µM

[Q] Report measured TGI; entry is O=C(Cc1ccccc1)NCCc1ccc(O)c(O)c1
[A] > 100 µM

[Q] Supply recorded TGI for COc1cc(/C=C/C(=O)OCC23CC[C@@]4(C(=O)O)CCC(C)[C@H](C)C4C2=CCC2[C@@]4(C)CC[C@H](O)C(C)(C)C4CC[C@]23C)ccc1O (some centres not stated) here.
[A] 76.1 µM

[Q] Supply TGI value. Item: Nc1nc(N)c2ncn(CC3CCC(CO)C3)c2n1 (configuration not stated)
[A] > 100 µM
